target: T1, TRAM-TIR (amino acid residues 66-235) (human, UniProt Q86XR7 66-235); assay: pull-down; GST fusion proteins held on Glutathione Sepharose 4B, three hours at 4°C; four washes with 20 mM potassium phosphate (pH 6.0), 100 mM KCl, 0.1 mM EDTA, 10 mM DTT, 0.5% Triton X100; SDS-PAGE with Coomassie staining; in triplicate; settings: both partners purified
T1 construct: TRAM (TICAM-2), human, TIR domain, residues 66-235; also called TIR domain of human TRAM; TRAM TIR domain; source: purified; subcloned into a pGEX vector, obtained by a similar procedure as previously described for the MyD88-TIR
T1 sequence (Q86XR7 66-235): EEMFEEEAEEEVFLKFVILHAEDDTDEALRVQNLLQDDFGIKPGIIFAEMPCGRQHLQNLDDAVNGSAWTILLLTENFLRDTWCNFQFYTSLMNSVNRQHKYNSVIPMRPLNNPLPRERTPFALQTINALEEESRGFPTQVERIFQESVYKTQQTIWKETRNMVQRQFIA

# BINDER, binding result
rows = [
    ("GST-MyD88-TIR R288A (148-296) (domain or fragment, UniProt Q99836 148-296, looked up, MyD88, TIR domain, residues 148-296, with R288A; also called Site III mutant R288A; source: purified as GST fusion protein (pGEX vector), by methods previously described) TTLDDPLGHMPERFDAFICYCPSDIQFVQEMIRQLEQTNYRLKLCVSDRDVLPGTCVWSIASELIEKRCRRMVVVVSDDYLQSKECDFQTKFALSLSPGAHQKRLIPIKYKAMKKEFPSILRFITVCDYTNPCTKSWFWTALAKALSLP", "binds"),
    ("GST-MyD88-TIR R196A (148-296) (domain or fragment, UniProt Q99836 148-296, looked up, MyD88, TIR domain, residues 148-296, with R196A; also called Site II mutant R196A; source: purified as GST fusion protein (pGEX vector), by methods previously described) TTLDDPLGHMPERFDAFICYCPSDIQFVQEMIRQLEQTNYRLKLCVSDADVLPGTCVWSIASELIEKRCRRMVVVVSDDYLQSKECDFQTKFALSLSPGAHQKRLIPIKYKAMKKEFPSILRFITVCDYTNPCTKSWFWTRLAKALSLP", "binds"),
]

Measured values drawn from paper PMC3369926 for this set.
